The values you see were collected from PubChem BioAssay AID1578.

- Procedure summary: NOD1 signaling inhibitors, primary screen, cell-based, luminescence, uHTS (AID 1578);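 note: HEK-293T reporter cells stimulated with the NOD1 agonist gamma-tri-DAP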
- Experimental parameters: NOD1-driven NF-kB luciferase reporter cells, at 4 µM, active compounds read high
The campaign covered roughly 290,000 compounds. About 3,000 (1%) were called active. The full list was thinned out, with actives kept by preference.
inhibition overview
Give your result in % as a bare value.

Worked cases, answers included:
>>> assay_result("CC(C1CC1)N(Cc1ccccc1)C(=S)Nc1ccccc1Cl (stereo not drawn)")
-9.7
>>> assay_result("COc1ccc(COc2cc(-c3cccc(OC)c3)nc3ccc(NC(=O)c4ccccc4)cc23)cc1")
48.6

API: the following record is the query input.
Let me know recorded inhibition for O=C(CCC(=O)OCC(=O)c1ccc(Br)cc1)NC1CCCCC1 , thanks. -4.2

###

- Procedure summary: NOD1 signaling inhibitors, primary screen, cell-based, luminescence, uHTS (AID 1578);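 note: HEK-293T reporter cells stimulated with the NOD1 agonist gamma-tri-DAP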
- Experimental parameters: NOD1-driven NF-kB luciferase reporter cells, at 4 µM
Hit rate of the full screen: of about 290,000 compounds, about 3,000 (1%) were called active. Cut-off read from the data, not from the text of the source: active = inhibition mostly above about 36% (no sharp cut-off); inactive = mostly below about 34%. What follows is part of a selection rich in actives, with near analogues and random picks from the rest.
Give one outcome, nothing more. List: active, inactive

Answered examples (10):
>>> qualitative_label("COc1ccc(CCn2c(C)c(C(C)=O)c(C(C)=O)c2C)cc1OC")
"inactive"
>>> qualitative_label("COc1cc(O)c(C(CCN2CCOCC2)c2ccc(N(C)C)cc2)c(OC)c1 (configuration not stated)")
"inactive"
>>> qualitative_label("COCCc1nnc(NC(=O)C23CC4CC(CC(C4)C2)C3)s1")
"inactive"
>>> qualitative_label("CC1=C(C(=O)OCc2ccccc2)C(c2cccc(Cl)c2Cl)NC(=O)N1CCCCCC(=O)O (configuration not stated)")
"inactive"
>>> qualitative_label("O=C(CCN1C(=O)/C(=C/c2ccc(F)cc2)SC1=S)Nc1cc([N+](=O)[O-])ccc1O")
"inactive"
>>> qualitative_label("C=CCCC(=O)NC1CC(C)(C)Cc2c1cnn2-c1ccc(OC)cc1 (configuration not stated)")
"inactive"
>>> qualitative_label("Cc1cc(C)n(-c2nc3c(c(=O)[nH]c(=O)n3C)n2C(C)C)n1")
"inactive"
>>> qualitative_label("CC(=O)N1N=C2/C(=C/c3ccccc3)CCCC2C1c1ccccc1 (configuration not stated)")
"active"
>>> qualitative_label("CN1C(=O)c2cccc(NC(=O)C3CCCCC3)c2C1=O")
"inactive"
>>> qualitative_label("CC1=C(C(=O)OCc2ccccc2)C(c2ccccc2Cl)NC(=O)N1CCCC(=O)O (configuration not stated)")
"inactive"

Note: attention shifts to another entry.
Called result for COc1ccc(N2C(=O)c3ccc(C(=O)Nc4cc(OC)ccc4OC)cc3C2=O)cc1 inactive

###

- Procedure summary: NOD1 signaling inhibitors, primary screen, cell-based, luminescence, uHTS (AID 1578);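 note: HEK-293T reporter cells stimulated with the NOD1 agonist gamma-tri-DAP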
- Experimental parameters: NOD1-driven NF-kB luciferase reporter cells, at 4 µM, active compounds read high
Out of some 290,000 compounds screened, about 3,000 (1%) were called active. Only a selection was taken, and actives are over-represented in it overall.
inhibition overview
Give your result in % as a bare value.

Worked cases, answers included:
>>> assay_result("CCOc1ccc(NC(=O)NC(C)CC)cc1 (stereo not drawn)")
31.5
>>> assay_result("ClCc1cc2ccccc2nc1Cl")
-27
>>> assay_result("Cc1c(C)[n+](=O)c2c(n1[O-])C(Br)CCC2Br (stereo not drawn)")
-7.3
>>> assay_result("COCCn1c(C)cc(C(=O)COC(=O)c2ccccc2Br)c1C")
67.9

Let me know recorded inhibition for COc1ccc(C(=O)Nn2c(SCC(=O)NCc3ccccc3)nc3ccccc3c2=O)cc1 , thanks. 18.4

Let me know recorded inhibition for CC(C)c1ccc(NC2CCCN(C(=O)c3cccc(N4CCNC4=O)c3)C2)cc1 (stereo not drawn) , thanks. 30.5

Let me know recorded inhibition for CCOC(=O)c1cnn(-c2nc3sc4c(c3c(=O)[nH]2)CCCC4)c1N , thanks. 63.7

Let me know recorded inhibition for Cc1ccc2cc(CCl)c(Cl)nc2c1 , thanks. 50.2

Let me know recorded inhibition for COc1ccc(-c2ccc3ccccc3n2)cc1 , thanks. -47

Let me know recorded inhibition for COc1cccc(NC(C)C(=O)N2CC(C)OC(C)C2)c1 (stereo not drawn) , thanks. -26.3

Let me know recorded inhibition for O=C(Nc1ccc([N+](=O)[O-])cc1)C(=O)Nc1cccc(C(=O)O)c1 , thanks. 79.5

Let me know recorded inhibition for CCOc1cccc(C(=O)Nc2ccc(S(=O)(=O)Nc3cc(C)on3)cc2)c1 , thanks. -2

Let me know recorded inhibition for Cc1nonc1NC(=O)CSc1nc(C23CC4CC(CC(C4)C2)C3)nc2ccccc12 , thanks. 2.5

Let me know recorded inhibition for c1ccc2nc(-c3ccc(N4CCOCC4)cc3)ccc2c1 , thanks. 11

Let me know recorded inhibition for Cc1cc(C(=O)COC(=O)c2ccc(O)cc2)c(C)n1Cc1ccco1 , thanks. -37.3

Let me know recorded inhibition for Cc1cc(C(=O)CSc2nnc(-c3ccccc3F)o2)c(C)n1Cc1cccs1 , thanks. 58.1

Let me know recorded inhibition for O=C(NN=C1CCCC1)c1cc(Br)ccc1O , thanks. -58.6

Let me know recorded inhibition for CC1Cc2cc(S(=O)(=O)N3CCC(C(N)=O)CC3)ccc2N1C(=O)C1CC1 (stereo not drawn) , thanks. -42.9

###

- Procedure summary: NOD1 signaling inhibitors, primary screen, cell-based, luminescence, uHTS (AID 1578);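 note: HEK-293T reporter cells stimulated with the NOD1 agonist gamma-tri-DAP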
- Experimental parameters: NOD1-driven NF-kB luciferase reporter cells, at 4 µM, active compounds read high
The whole screen tested about 290,000 compounds, of which about 3,000 (1%) were called active. What follows is part of a selection rich in actives, with near analogues and random picks from the rest.
Reported property: inhibition (%)
Give your result in % as a bare value.

Worked cases, answers included:
>>> assay_result("Cc1cc(C)cc(-n2ncc3c2CCCC3NC(=O)C2(C(N)=O)CC2)c1 (stereo not drawn)")
-11.6
>>> assay_result("CCn1c(SCC(=O)N/N=C/c2ccccc2OCC(=O)O)nnc1-c1ccc(C(C)(C)C)cc1")
86.7
>>> assay_result("CC1c2[nH]c3ccccc3c2C[C@H]2C(=O)N(CCO)CC(=O)N12 (stereo partly drawn)")
-2.7
>>> assay_result("Cc1cc(C)cc(C(=O)NCc2ccc3c(c2)OCO3)c1")
-31
>>> assay_result("Cc1ccc(N=Cc2sc(O)c3ccccc23)cc1")
-36.5

Let me know recorded inhibition for CNCCCC1Sc2ccccc2Oc2ccccc21 (stereo not drawn) , thanks. -31.7

Let me know recorded inhibition for COc1cc(OC)c(OC)cc1/C=C/c1cc(C(F)(F)F)[nH]c(=O)n1 , thanks. -1

Let me know recorded inhibition for Cc1nnc(SCCn2c(N3CCCC(C)C3)nc3c2c(=O)[nH]c(=O)n3C)s1 (stereo not drawn) , thanks. -9.1

Let me know recorded inhibition for O=[N+]([O-])c1ccc(N=Nc2ncc[nH]2)cc1 , thanks. 74.2

Let me know recorded inhibition for O=[N+]([O-])c1ccc(Cl)c(/C=N/n2c(COc3ccccc3)n[nH]c2=S)c1 , thanks. -22

Let me know recorded inhibition for Cc1c(C(=O)O)oc2ccc(S(=O)(=O)N3CC(C)CC(C)C3)cc12 (stereo not drawn) , thanks. -13

Let me know recorded inhibition for Cc1ccc(C(=O)NNC2=Nc3cccc4cccc2c34)cc1 , thanks. 34

Let me know recorded inhibition for CCn1c(SCC(=O)N/N=C(\C)c2ccncc2)nnc1-c1ccc(C)cc1 , thanks. -7.3

Let me know recorded inhibition for Cc1cccc(-n2ncc3c2CCCC3NC(=O)C2CCOCC2)c1C (stereo not drawn) , thanks. 9.8

Let me know recorded inhibition for CCn1c(SCC(=O)Nc2nc(-c3ccccc3)cs2)nnc1-c1ccccc1O , thanks. 12.7

Let me know recorded inhibition for COc1ccc(/C=C/c2cc(C(F)(F)F)[nH]c(=O)n2)cc1OC , thanks. 44.3

Let me know recorded inhibition for O=C(c1ccc(Br)cc1)C1CCc2occc2C1=O (stereo not drawn) , thanks. -29.8

Let me know recorded inhibition for N#Cc1c(N)nc(Sc2ccc(Cl)cc2)c(C#N)c1-c1ccccc1Cl , thanks. 83.1

Let me know recorded inhibition for COc1cc(=O)[nH]c(SCC(=O)Nc2ccc3ccccc3c2)n1 , thanks. -28.4

Let me know recorded inhibition for CCOC(=O)N1CCN(C(=O)CSCC(=O)Nc2nc(-c3ccc(-c4ccccc4)cc3)cs2)CC1 , thanks. 58.2

Let me know recorded inhibition for Cc1cc(C)cc(NS(=O)(=O)c2ccc3[nH]cc(C(=O)N4CCc5ccccc54)c(=O)c3c2)c1 , thanks. 3.5

Let me know recorded inhibition for COc1cc(/C=C/c2cc(C(F)(F)F)[nH]c(=O)n2)cc(OC)c1OC , thanks. 86.7

Let me know recorded inhibition for CC1c2ccccc2SC(CCCN(C)C)c2ccccc21 (stereo not drawn) , thanks. 59.5
